assay.overview: yeast growth modulation, basal conditions, primary screen, YJM789 clinical isolate, OD600, 24 h (AID 1089);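 note: growth of clinical yeast isolate S. cerevisiae YJM 789 seeded 1000 cells per well; test concentration not given here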
measurement.context: S. cerevisiae YJM789 growth, higher = more signal, called active from +8 up or from −8 down
metric: z-score
// keep it numeric: no unit symbol after the value

What z-score value was documented for this compound, `CCOC(=O)C[C@H]1[C@H](OC(=O)c2ccc(C(=O)c3ccccc3)cc2)[C@@H](NC(=O)c2ccc3ccccc3c2)c2cc(OCCCO)ccc2N1C(=O)c1ccc2ccccc2n1` ?
0.216

What z-score value was documented for this compound, `CCOC(=O)C1=C[C@@H](C(C)(C)C)N(S(=O)(=O)c2ccc(C)cc2)[C@H]1c1ccccc1Cl` ?
0.168

What z-score value was documented for this compound, C=CCC(OC(C)=O)[C@@H]1[C@@H](N(Cc2ccc(-c3ccccc3)cc2)C(=O)c2cccc3ccccc23)c2cc(OCCCO)ccc2N1C(=O)c1ccc2ccccc2c1 (some centres not stated) ?
-0.521

What z-score value was documented for this compound, `COCCCNC(=O)[C@@]1(Sc2ccc(C)cc2)CC(=O)N(C2CCCCC2)[C@@H]1c1ccc(CO)cc1I` ?
-1.9

What z-score value was documented for this compound, `COC(=O)[C@@]1(Cc2ccc(F)cc2)[C@H]2c3cc(C(=O)N(C)C)n(CCO)c3C[C@H]2CN1C(=O)c1ccccc1` ?
-1.48

What z-score value was documented for this compound, `CC(C)C[C@@H]1NC(=O)[C@@H]2C[C@H](C(=O)O)[C@H](c3ccc(O)cc3)N2C1=O` ?
-1.45

What z-score value was documented for this compound, `Cc1c(NC(=O)/C(C#N)=C/c2ccc(Cl)cc2)c(=O)n(-c2ccccc2)n1C` ?
-1.53
